Entry source: ChEMBL document CHEMBL1201862

- Tested on: A549
- assay_name: NCI tumour cell line growth inhibition, 48 h
Activity calls are given as the source filed them. Cut-off read from the data, not from the text of the source: active = GI50 up to about 1.1 µM and inactive = higher.
Catalogue of GI50 values

>  <compound>
CC(C)(C)n1c(=O)n2c(-c3ccccc3)c(-c3ccccc3)n2c1=O

>  <GI50>
56.9 µM (inactive)

$$$$
>  <compound>
CC(C)=CCc1c(O)ccc2ccc(=O)oc12 [OSTHENOL]

>  <GI50>
5.83 µM (inactive)

$$$$
>  <compound>
COC(=O)N/N=c1\cc(C(=O)Nc2ccc(C)c(C)c2)oc2cc(O)ccc12

>  <GI50>
> 100 µM (inactive)

$$$$
>  <compound>
CC1OC(n2ccc(=O)[nH]c2=O)C=C(OC(=O)c2ccccc2)C1=O (stereo unspecified)

>  <GI50>
39.3 µM (inactive)

$$$$
>  <compound>
CCCCCCCCOP(=O)(O)OP(=O)(O)OCC1OC(n2ccc(N)nc2=O)C(O)C1O (stereo unspecified)

>  <GI50>
> 100 µM (inactive)

$$$$
>  <compound>
CC(C)(C)C(=O)Nc1c(C=O)ccc2[nH]cnc12

>  <GI50>
> 100 µM (inactive)

$$$$

---

- System: HOP-62
- assay_name: NCI tumour cell line growth inhibition, 48 h
Calls of active or inactive are those of the source. Cut-off read from the data, not from the text of the source: active = GI50 up to about 1.1 µM and inactive = higher.
parameter: GI50

>  <compound>
CCOC(CN=C=S)OCC

>  <tested_target>
HOP-62

>  <parameter>
GI50

>  <result>
> 10 µM (inactive)

$$$$
>  <compound>
S=C1SCN(C2CCCCCCCCCCC2)CN1C1CCCCCCCCCCC1

>  <tested_target>
HOP-62

>  <parameter>
GI50

>  <result>
67.6 µM (inactive)

$$$$
>  <compound>
C/C(=N\NS(=O)(=O)c1ccc(C)cc1)C(CN(C)C)C(c1ccccc1)c1c(O)c2ccccc2oc1=O (stereo not given)

>  <tested_target>
HOP-62

>  <parameter>
GI50

>  <result>
89.9 µM (inactive)

$$$$
>  <compound>
NC(=O)C(=O)C(c1ccccc1)S(=O)(=O)Cc1ccccc1 (stereo not given)

>  <tested_target>
HOP-62

>  <parameter>
GI50

>  <result>
> 100 µM (inactive)

$$$$
>  <compound>
O=C(c1ccccc1)N1C(=S)N(c2ccc([N+](=O)[O-])cc2)C(=N/c2ccccc2)/C1=N\c1ccccc1

>  <tested_target>
HOP-62

>  <parameter>
GI50

>  <result>
> 100 µM (inactive)

$$$$
>  <compound>
CN1CCCNCCN(CCc2ccccn2)CCCN(C)CC1

>  <tested_target>
HOP-62

>  <parameter>
GI50

>  <result>
> 100 µM (inactive)

$$$$
>  <compound>
Nn1c(S)nnc1N/N=C1/C(=O)Nc2c(Cl)cc(Cl)cc21

>  <tested_target>
HOP-62

>  <parameter>
GI50

>  <result>
50.4 µM (inactive)

$$$$
>  <compound>
COc1ccc(-n2c(=O)c3nc(S)[nH]c3n(-c3ccc(OC)cc3)c2=S)cc1

>  <tested_target>
HOP-62

>  <parameter>
GI50

>  <result>
> 100 µM (inactive)

$$$$
>  <compound>
COc1cccc(O)c1-c1cc(=O)c2c(O)c(OC)c(OC)c(OC)c2o1

>  <tested_target>
HOP-62

>  <parameter>
GI50

>  <result>
17.5 µM (inactive)

$$$$
>  <compound>
Cc1ccc(S(=O)(=O)NC(=O)Nc2ccc(C(=O)O)c(O)c2)cc1

>  <tested_target>
HOP-62

>  <parameter>
GI50

>  <result>
> 100 µM (inactive)

$$$$
